System: A549
Test: NCI tumour cell line growth inhibition, 48 h
Active and inactive are the calls of the source. Rule as the data show it: active = GI50 up to about 1.1 µM and inactive = higher. Where a SMILES comes first, the peptide text is derived from it. [ ]: non-standard residue; d: D form. The star is where a group is joined. ξ: configuration not given here. ξNMe2Val = CC(C)C(C(=O)*)N(C)C; NMeV = CN[CH](C(=O)O)C(C)C; NHBn = c1ccc(CN*)cc1
Outcome codes: active, inactive

[[record]]
compound = "CC(=O)NNc1nc(C)c(C(=O)NNC(=O)C(=O)Nc2ccc([N+](=O)[O-])cc2C#N)s1"
category = "inactive"

[[record]]
compound = "OC[C@H]1C[C@@H]2Cc3ccccc3N2N1"
category = "inactive"

[[record]]
compound = "COc1cc(Br)c(CC2C3=C(CCN2C(=O)C2CCC2)CC2(CC3)OCCO2)cc1O (centres undefined)"
category = "inactive"

[[record]]
compound = "O=C(c1ccccc1)c1ccc(N2C(=O)/C(=C/c3cccc(Oc4ccccc4)c3)N=C2c2ccccc2)c(N2C(=O)/C(=C/c3cccc(Oc4ccccc4)c3)N=C2c2ccccc2)c1"
category = "inactive"

[[record]]
compound = "CN1C[C@@H]2CC(=O)CC[C@@H]2C[C@H]1C#N"
category = "inactive"

[[record]]
compound = "CC1SC2=NC3=C(c4ccccc4C3=O)C(c3ccc(Cl)cc3)N2C1=O (centres undefined)"
category = "inactive"

[[record]]
compound = "O=C(Nc1ccccc1[N+](=O)[O-])c1ccccc1"
category = "inactive"

[[record]]
compound = "O=C1C(Cl)N(c2ccccc2[N+](=O)[O-])C1c1c[nH]c2ccccc12 (centres undefined)"
category = "inactive"

[[record]]
compound = "CO[C@]1(c2ccc([N+](=O)[O-])cc2)Oc2ccccc2C(=O)[C@@]1(Nc1ccc(C=O)cc1)OC"
category = "inactive"

[[record]]
compound = "O=c1[nH]c2cc(C(F)(F)F)ccc2nc1CBr"
category = "inactive"

[[record]]
compound = "C=CCn1c(=O)c2ccccc2[n+]2c(-c3cccc([N+](=O)[O-])c3)csc12"
category = "inactive"

[[record]]
compound = "COc1ccc(OC)c2c(C(=O)O)c(C(C)c3ccccc3)ccc12 (centres undefined)"
category = "inactive"

[[record]]
compound = "O=C(N/N=C/c1c(-c2ccccc2)no[n+]1[O-])N1CCOCC1"
category = "inactive"

[[record]]
compound = "CC(=O)Nc1ccc(C(=O)NN2C(=O)C(Cl)/C2=C/c2ccco2)cc1 (centres undefined)"
category = "inactive"

[[record]]
compound = "Cc1cc(C(=O)NCCN(C)C)c2nc3ccccc3cc2c1"
category = "active"

[[record]]
compound = "Clc1ccc(Nc2nc(Cl)c3nc[nH]c3n2)cc1Cl"
category = "inactive"

[[record]]
compound = "Cc1cc(=O)n2c3c(c4c(cc13)c(CN(C)C)cc(=O)n4C)OC2"
category = "inactive"

[[record]]
compound = "C=C(C=O)c1c2c(nc3ccccc13)C(=O)c1ccccc1C2=O"
category = "inactive"

[[record]]
compound = "CCOC(=O)c1sc2nc1CSc1sc(=S)sc1SCc1nc(sc1C(=O)OCC)-c1nc(c(C(=O)OCC)s1)CSc1sc(=S)sc1SCc1nc-2sc1C(=O)OCC"
category = "inactive"

[[record]]
compound = "CCOC(OCC)C(CC)[Se]c1ccccc1 (centres undefined)"
category = "inactive"

[[record]]
compound = "Cc1ccc(C(=O)NC2CCCCC2)cc1/N=N/N(C)C"
category = "inactive"

[[record]]
compound = "FC(F)(F)c1nc(-c2ccccc2)oc1Sc1nnc(Sc2oc(-c3ccccc3)nc2C(F)(F)F)s1"
category = "inactive"

[[record]]
compound = "N=C1c2ccccc2C(=O)c2c(NCCNCCO)ccc(O)c21"
category = "inactive"

[[record]]
compound = "CC(C)C(NC(=O)C(C(C)C)N(C)C)C(=O)N(C)C(C(=O)N1CCCC1C(=O)N1CCCC1C(=O)NCc1ccccc1)C(C)C (centres undefined) (ξNMe2Val-V[NMeV]PP-NHBn; configuration not given here)"
category = "active"

[[record]]
compound = "C=C1CC2(CCS(=O)(=O)c3ccccc32)OC1=O (centres undefined)"
category = "inactive"

[[record]]
compound = "O=C(NCCCl)SCCO"
category = "inactive"

[[record]]
compound = "COC(=O)[C@@]12C3=NO[C@]1(C(=O)OC)C(O[Si](C)(C)C(C)(C)C)[C@@H](OC(C)=O)[C@@H](OC(C)=O)[C@@H]2[C@@H](OCc1ccccc1)CC3 (some centres undefined)"
category = "inactive"

[[record]]
compound = "CC(=O)C1=C(C)O[C@@H]2O[C@H](COCc3ccccc3)[C@@H](OCc3ccccc3)[C@H](O)[C@@H]2S1"
category = "inactive"

[[record]]
compound = "COc1cc(N(CCC#N)CCC#N)ccc1/C=C1\\SC(=S)NC1=O"
category = "inactive"

[[record]]
compound = "Cc1c(C=C(C#N)C#N)c(=O)n(C)c(=O)n1C"
category = "inactive"

[[record]]
compound = "COc1cc2c(c(OC)c1OC)C(=O)c1c(O)cc(C)c(OC)c1C2=O"
category = "inactive"

[[record]]
compound = "O=C1NC2C(O)CCCCC2C12CCCCC2 (centres undefined)"
category = "inactive"

[[record]]
compound = "CN(C)CCCc1c[nH]c2ccccc12"
category = "inactive"

[[record]]
compound = "CCCCSC1CCSc2c1ccc1ccccc21 (centres undefined)"
category = "inactive"

[[record]]
compound = "O=C1C=CC(=O)c2c(Cl)ccc(O)c21"
category = "inactive"

[[record]]
compound = "Cc1c(C)c(C)c(-n2c(=O)n(C)c(=O)n2-c2cc(C(C)(C)C)cc(C(C)(C)C)c2O)c(C)c1C"
category = "inactive"

[[record]]
compound = "C/C(=N\\O)c1ccc(Nc2nc3ccccc3c3occc23)cc1"
category = "inactive"

[[record]]
compound = "CC12CCc3ccccc3C1=Nc1ccccc12 (centres undefined)"
category = "inactive"

[[record]]
compound = "ClCc1ccc2ccc3ccc(CCl)nc3c2n1"
category = "inactive"

